Target: human c-Met on cells (NCI-H441, NCI-H292, U87-MG) (human, UniProt P08581 25-1390)
Sequence (P08581 other isoform, or with tags, fused parts or gaps limits assumed): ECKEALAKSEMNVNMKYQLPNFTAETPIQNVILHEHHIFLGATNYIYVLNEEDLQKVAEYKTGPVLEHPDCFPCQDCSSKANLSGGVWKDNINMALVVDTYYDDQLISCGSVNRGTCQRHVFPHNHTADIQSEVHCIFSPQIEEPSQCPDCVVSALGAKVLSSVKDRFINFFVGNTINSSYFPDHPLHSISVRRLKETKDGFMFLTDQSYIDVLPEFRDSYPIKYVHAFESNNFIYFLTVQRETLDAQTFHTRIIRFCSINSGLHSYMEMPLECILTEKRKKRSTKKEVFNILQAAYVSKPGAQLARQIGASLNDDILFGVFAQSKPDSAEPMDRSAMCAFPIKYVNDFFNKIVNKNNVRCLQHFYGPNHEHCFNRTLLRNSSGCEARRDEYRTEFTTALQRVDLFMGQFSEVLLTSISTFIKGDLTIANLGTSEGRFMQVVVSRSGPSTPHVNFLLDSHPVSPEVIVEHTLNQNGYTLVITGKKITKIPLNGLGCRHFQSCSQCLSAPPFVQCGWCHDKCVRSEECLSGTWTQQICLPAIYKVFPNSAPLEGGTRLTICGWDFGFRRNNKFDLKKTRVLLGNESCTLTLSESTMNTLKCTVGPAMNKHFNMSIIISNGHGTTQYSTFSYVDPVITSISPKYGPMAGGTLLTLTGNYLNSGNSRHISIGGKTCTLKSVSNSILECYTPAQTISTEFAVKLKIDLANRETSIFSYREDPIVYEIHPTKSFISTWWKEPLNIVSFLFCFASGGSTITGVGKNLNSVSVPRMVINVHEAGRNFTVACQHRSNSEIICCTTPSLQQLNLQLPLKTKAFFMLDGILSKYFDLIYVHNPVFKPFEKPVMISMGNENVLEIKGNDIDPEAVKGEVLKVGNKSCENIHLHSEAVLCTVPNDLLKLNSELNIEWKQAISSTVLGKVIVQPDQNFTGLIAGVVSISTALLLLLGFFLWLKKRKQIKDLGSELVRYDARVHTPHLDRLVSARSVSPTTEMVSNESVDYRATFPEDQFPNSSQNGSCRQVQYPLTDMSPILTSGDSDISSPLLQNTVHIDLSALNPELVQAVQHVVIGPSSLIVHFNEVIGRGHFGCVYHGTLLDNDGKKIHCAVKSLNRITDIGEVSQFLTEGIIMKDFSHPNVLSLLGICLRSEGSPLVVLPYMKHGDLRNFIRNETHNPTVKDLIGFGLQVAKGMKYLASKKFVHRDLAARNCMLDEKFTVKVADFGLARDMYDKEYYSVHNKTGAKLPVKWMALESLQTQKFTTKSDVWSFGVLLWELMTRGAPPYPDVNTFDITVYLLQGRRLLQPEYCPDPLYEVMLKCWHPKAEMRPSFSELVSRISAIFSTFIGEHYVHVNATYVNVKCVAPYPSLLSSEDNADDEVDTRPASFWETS
Experiment: cell-based or functional assay
Kindly apply the following: true (1) if Inhibition of proliferation of U87-MG cells IC50 is less than 300 nM, false (0) in every other case.

IN: Is 300 nM strictly greater than the binder's reported Inhibition of proliferation of U87-MG cells IC50? binder: P114AR7P95-H8 (designed binder, not shown: small tags and cut ends) LPAPKNLVVSRVTEDSARLSWTAPDAAFDSFWIRYFEFVSKGEAIVLTVPGSERSYDLTGLKPGTEYVVNIMGVKGGSISPPLSAIFTT
OUT: true (1)

IN: Is 300 nM strictly greater than the binder's reported Inhibition of proliferation of U87-MG cells IC50? binder: P114AR7P93-D11 (designed binder, not shown: small tags and cut ends) LPAPKNLVVSRVTEDSARLSWTAPDAAFDSFWIRYFEFLGSGEAIVLTVPGSERSYDLTGLKPGTEYVVGINGVKGGYISYPLSAIFTT
OUT: true (1)

IN: Is 300 nM strictly greater than the binder's reported Inhibition of proliferation of U87-MG cells IC50? binder: P114AR7P92-G8 (designed binder, not shown: small tags and cut ends) LPAPKNLVVSRVTEDSARLSWTAPDAAFDSFVIRYFEFLGSGEAIVLTVPGSERSYDLTGLKPGTEYVVQILGVKGGYISIPLSAIFTT
OUT: true (1)

IN: Is 300 nM strictly greater than the binder's reported Inhibition of proliferation of U87-MG cells IC50? binder: P114AR7P92-F3 (designed binder, not shown: small tags and cut ends) LPAPKNLVVSRVTEDSARLSWTAPDAAFDSFWIRYFEFLGSGEAIVLTVPGSERSYDLTGLKPGTEYIVNIMGVKGGSISHPLSAIFTT
OUT: true (1)

IN: Is 300 nM strictly greater than the binder's reported Inhibition of proliferation of U87-MG cells IC50? binder: P114AR7P95-G7 (designed binder, not shown: small tags and cut ends) LPAPKNLVVSRVTEDSARLSWTAPDAAFDSFWIRYFELLSTGEAIVLTVPGSERSYDLTGLKPGTEYVVNIMGVKGGSISPPLSAIFTT
OUT: false (0)
